Tested on: SK-OV-3
EXPERIMENT SUMMARY: NCI tumour cell line growth inhibition, 48 h
The source made the active and inactive calls. Cut-off read from the data, not from the text of the source: active = GI50 up to about 1.1 µM and inactive = higher.
# reported GI50; entries follow
PARAMETER MEASURED: GI50

{"COMPOUND": "c1n[nH]cc1C12C3C4C5C3C1C5C42 (configuration not stated)", "ENDPOINT RESULT": "> 100 µM (inactive)"}
{"COMPOUND": "CN(COC(=O)c1ccccc1)c1nc(N(C)COC(=O)c2ccccc2)nc(N(C)COC(=O)c2ccccc2)n1", "ENDPOINT RESULT": "> 65.2 µM (inactive)"}
{"COMPOUND": "CC(C)(C)OC(=O)/C=C/[C@@H](CCC(=O)/C=C/[C@H](/C=C\\CCCC(=O)O)NC1(c2ccccc2)c2ccccc2-c2ccccc21)O[Si](C)(C)C(C)(C)C", "ENDPOINT RESULT": "46.6 µM (inactive)"}
{"COMPOUND": "Cc1ccc(/N=N/C(=N/NC(=O)c2ccccc2)c2ccc(N(CCC#N)CCC#N)cc2C)cc1", "ENDPOINT RESULT": "60.3 µM (inactive)"}
{"COMPOUND": "Cc1nc2sccn2c1C(=O)N/N=C1\\SCC(=O)N1C", "ENDPOINT RESULT": "> 100 µM (inactive)"}
{"COMPOUND": "CC(C)N(/C(F)=N\\C(=O)Nc1ccccc1C(F)(F)F)C(C)C", "ENDPOINT RESULT": "33.7 µM (inactive)"}
{"COMPOUND": "CCCCCCc1cc(C(=O)Nc2ccc(Cl)cc2)nc(S)n1", "ENDPOINT RESULT": "> 100 µM (inactive)"}
{"COMPOUND": "Clc1ccc2c(c1)CC1C[N+]3=C(CCCCC3)C1=C2 (configuration not stated)", "ENDPOINT RESULT": "> 100 µM (inactive)"}
{"COMPOUND": "CCOC(=O)C(Cc1ccc2c(c1)CCC2)Cc1ccc2c(c1)CCC2", "ENDPOINT RESULT": "> 100 µM (inactive)"}
{"COMPOUND": "CC(C)(C)OC(=O)NCCNC(=O)CN(CC(=O)O)C1CCCCC1N(CC(=O)O)CC(=O)O (configuration not stated)", "ENDPOINT RESULT": "> 100 µM (inactive)"}
{"COMPOUND": "CCOC(=O)C(NC(=O)CC)(Nc1ccc(F)cc1F)C(F)(F)F (configuration not stated)", "ENDPOINT RESULT": "> 100 µM (inactive)"}
{"COMPOUND": "O=C(O)c1ccccc1CC1Cc2ccccc2C1=O (configuration not stated)", "ENDPOINT RESULT": "> 100 µM (inactive)"}
{"COMPOUND": "CCOC1=C2C(C)(CCC3[C@@]4(C)C=CC(=O)C(C)(C)C4CC(O)[C@@]23C)C(c2ccoc2)C1=O (some centres not stated)", "ENDPOINT RESULT": "26.4 µM (inactive)"}
{"COMPOUND": "Cc1ccc(NC(c2ccccc2)P(=O)(c2ccccc2)c2ccccc2)cc1 (configuration not stated)", "ENDPOINT RESULT": "> 100 µM (inactive)"}
{"COMPOUND": "COc1ccc2c(c1)N=C1CSC(c3ccccc3Cl)N1C2 (configuration not stated)", "ENDPOINT RESULT": "15.1 µM (inactive)"}
{"COMPOUND": "CN(C)/C=C/c1ccncc1", "ENDPOINT RESULT": "> 100 µM (inactive)"}
{"COMPOUND": "O=C1CC2CCCC23CC2(CCN13)OCCO2 (configuration not stated)", "ENDPOINT RESULT": "> 100 µM (inactive)"}
